system: TZM-bl cell line; type: cell-based; conditions: human, 1 μM
measure: % Cell Viability (%)
Express your answer in %, writing the number without its unit.

Example cases with answers are listed next.
CS(=O)(=O)c1ccc(-c2nn(-c3cc(C(F)(F)F)n[nH]3)c(O)c2CCc2ccc(F)cc2)cc1 [Compound I-603] = 100
CC(=O)N1CCC(c2nn(-c3nc4cc(Cl)ccc4[nH]3)c(O)c2CCn2nccn2)CC1 [Compound I-704] = 99.4
CC(C)OC(=O)N1CCC(c2nn(-c3nc4cc(Cl)ccc4[nH]3)c(O)c2CCC2CCOCC2)CC1 [Compound I-701] = 98.7
Oc1c(CC2CCN(CC(F)(F)F)CC2)c(-c2ccc(C(F)(F)F)cc2)nn1-c1nc2ccccc2[nH]1 [Compound I-1005] = 93.5
O=C(OCc1ccccc1)N1CCC(c2nn(-c3nc4cccc(Cl)c4[nH]3)c(O)c2CCc2ccc(F)cc2)CC1 [Compound I-166] = 97.0

Entry CC(=O)N1CCC(c2nn(-c3nc4ccc(Cl)cc4[nH]3)c(O)c2CCc2ccc(F)cc2)CC1 [Compound I-702] , % Cell Viability reported as 96.4

Entry Oc1c(CC2CCOCC2)c(-c2ccc(F)cc2)nn1-c1nc2ccccc2[nH]1 [Compound I-151] , % Cell Viability reported as 83.0

----------
molecular target: HIV-1 NefNL4-3 (Human immunodeficiency virus type 1 group M subtype B, UniProt P03406, A33V/T15A/T51N/V11I); experiment: Surface plasmon resonance binding to recombinant full-length Nef (NL4-3)
Reported Kd maps to class as: label 0 = under 200 nM, label 1 = from 200 nM up to 1000 nM, label 2 = 1000 nM and over

Would you please look over these solved cases?
CC(C)(C)OC(=O)N1CCN(Cc2nn(-c3nc4ccccc4[nH]3)c(O)c2CCc2ccc(F)cc2)CC1 = label 2
CC(C)S(=O)(=O)N1CCC(c2nn(-c3nc4ccccc4[nH]3)c(O)c2CCc2ccc(F)cc2)CC1 = label 1
Oc1c(CCc2ccc(F)cc2)c(-c2ccc(C(F)(F)F)cc2)nn1-c1nc2ccccc2[nH]1 = label 2
Oc1c(CCc2ccc(F)cc2)c(C2CCC2)nn1-c1nc2ccccc2[nH]1 = label 0
Cn1cccc(CCc2c(-c3ccc(C(F)(F)F)cc3)nn(-c3nc4ccccc4[nH]3)c2O)c1=O = label 1
CC(=O)N1CCC(Cc2c(-c3ccc(C(F)(F)F)cc3)nn(-c3nc4ccccc4[nH]3)c2O)CC1 = label 2

Could you place Oc1c(CCC2CCNCC2)c(C2CC2)nn1-c1nc2cc(Cl)ccc2[nH]1 in its proper category? Many thanks.
label 0

Could you place Oc1c(CCc2ccc(F)cc2)c(-c2ccccc2Cl)nn1-c1nc2ccccc2[nH]1 in its proper category? Many thanks.
label 2

Could you place Oc1c(CCc2ccc(F)cc2)c(CNCc2ccncc2)nn1-c1nc2ccccc2[nH]1 in its proper category? Many thanks.
label 0

Could you place CCOC(=O)c1nn(-c2nc3ccccc3[nH]2)c(O)c1CCc1ccc(F)cc1 in its proper category? Many thanks.
label 0

Could you place O=C(NCC1CC1)c1ccc(-c2nn(-c3nc4ccccc4[nH]3)c(O)c2CCc2ccc(F)cc2)cc1 in its proper category? Many thanks.
label 1

----------
system: TZM-bl cell line; type: cell-based; conditions: human, 1 μM
Let's look at some molecules and their measured Percent Viability @ 1 μM (TZM-bl cells).
Express your answer in %, writing the number without its unit.

CO[C@H](C)C(=O)N1CCC(c2nn(-c3nc4ccccc4[nH]3)c(O)c2CCc2ccc(F)cc2)CC1 = 95.1
CC(C)(C)OC(=O)N1CCC(c2nn(-c3nc4ccccc4[nH]3)c(O)c2CCc2ccc(F)cc2)CC1 = 79.2
Oc1c(CCc2ccc(F)cc2)c(-c2ccc(C(F)(F)F)cn2)nn1-c1nc2ccccc2[nH]1 = 77.1
CC(C)(C)OC(=O)c1ccc(-c2nn(-c3nc4ccccc4[nH]3)c(O)c2CCc2ccc(F)cc2)cc1 = 90.6

Entry Oc1c(CCc2ccc(F)cc2)c(C2CC2)nn1-c1nc2cc(Cl)ccc2[nH]1 , Percent Viability @ 1 μM (TZM-bl cells) reported as 98.8

Entry O=C(c1cnccn1)N1CCC(Cc2nn(-c3nc4ccccc4[nH]3)c(O)c2CCc2ccc(F)cc2)CC1 , Percent Viability @ 1 μM (TZM-bl cells) reported as 97.6

Entry Oc1c(CCc2ccc(F)cc2)c(-c2ccc(F)cc2)nn1-c1nc2cc(Cl)ccc2[nH]1 , Percent Viability @ 1 μM (TZM-bl cells) reported as 96.5

Entry COCCc1nn(-c2nc3ccccc3[nH]2)c(O)c1CCc1ccc(F)cc1 , Percent Viability @ 1 μM (TZM-bl cells) reported as 101.1

Entry CS(=O)(=O)c1ccc(-c2nn(-c3nc4ccccc4[nH]3)c(O)c2CCc2ccc(F)cc2)cc1 , Percent Viability @ 1 μM (TZM-bl cells) reported as 75.5

Entry Oc1c(CCc2ccncc2)c(-c2cccc(F)c2)nn1-c1cc(C(F)(F)F)n[nH]1 , Percent Viability @ 1 μM (TZM-bl cells) reported as 98.9

Entry CC(C)(C)OC(=O)N1CCC(c2nn(-c3nc4cccc(Cl)c4[nH]3)c(O)c2CCc2ccc(F)cc2)CC1 , Percent Viability @ 1 μM (TZM-bl cells) reported as 104.9

----------
biological target: HIV-1 NefNL4-3 (Human immunodeficiency virus type 1 group M subtype B, UniProt P03406, A33V/T15A/T51N/V11I); assay: Surface plasmon resonance binding to recombinant full-length Nef (NL4-3)
measure: Kd (nM)
Express your answer in nM, writing the number without its unit.

Example cases with answers are listed next.
CC(C)(C)OC(=O)N1CCC(CCc2c(-c3cccc(S(C)(=O)=O)c3)nn(-c3nc4ccccc4[nH]3)c2O)CC1 [Compound I-210] = 886
CC(=O)N1CCC(CCc2c(-c3ccc(C(F)(F)F)cc3)nn(-c3nc4ccccc4[nH]3)c2O)CC1 [Compound I-719] = 2200
O=C(c1cnccn1)N1CCCC1c1nn(-c2nc3ccccc3[nH]2)c(O)c1CCc1ccc(F)cc1 (stereo not drawn) [Compound I-759] = 221

Entry Oc1c(CCc2ccc(F)cc2)c(C2CCN(CC3CCOCC3)CC2)nn1-c1nc2ccccc2[nH]1 [Compound I-806] , Kd reported as 9900

Entry O=S(=O)(NCc1nn(-c2nc3ccccc3[nH]2)c(O)c1CCc1ccc(F)cc1)c1cccnc1 [Compound I-774] , Kd reported as 252

Entry CC(=O)N1CCC(c2nn(-c3nc4ccccc4[nH]3)c(O)c2Cc2ccc(F)c(F)c2)CC1 [Compound I-744] , Kd reported as 23.5

Entry Cc1nccn1CCc1c(-c2ccc(C(F)(F)F)cc2)nn(-c2nc3ccccc3[nH]2)c1O [Compound I-142] , Kd reported as 32800

Entry COC(=O)N1CCC(c2nn(-c3nc4cc(Cl)ccc4[nH]3)c(O)c2CCn2nccn2)CC1 [Compound I-705] , Kd reported as 1110

Entry Oc1c(CCc2ccccn2)c(-c2ccc(C(F)(F)F)cn2)nn1-c1nc2ccccc2[nH]1 [Compound I-146] , Kd reported as 1650

Entry CC[C@H](C)[C@H](O)C(=O)N1CCC(c2nn(-c3nc4ccccc4[nH]3)c(O)c2CCc2ccc(F)cc2)CC1 [Compound I-732] , Kd reported as 630

Entry O=C(c1nn(-c2nc3ccccc3[nH]2)c(O)c1CCc1ccc(F)cc1)N1CCCCC1 [Compound I-406] , Kd reported as 549

Entry O=C(OCc1ccccc1)N1CCC(c2nn(-c3nc4cccnc4[nH]3)c(O)c2CCc2ccc(F)cc2)CC1 [Compound I-306] , Kd reported as 13.6

Entry COc1cccc(-c2nn(-c3nc4ccccc4[nH]3)c(O)c2CCc2ccc(F)cc2)n1 [Compound I-138] , Kd reported as 3960

Entry O=C(c1c(O)cc(O)cc1O)N1CCCC1c1nn(-c2nc3ccccc3[nH]2)c(O)c1CCc1ccc(F)cc1 (stereo not drawn) [Compound I-762] , Kd reported as 277

Entry Oc1c(CCc2ccc(F)cc2)c(CNCc2cccnc2)nn1-c1nc2ccccc2[nH]1 [Compound I-811] , Kd reported as 559

Entry Oc1c(CCc2ccc(F)cc2)c(C2CCOCC2)nn1-c1cc(C(F)(F)F)n[nH]1 [Compound I-623] , Kd reported as 221000

Entry Cc1ccn(CCc2c(-c3ccc(C(F)(F)F)cc3)nn(-c3nc4cccnc4[nH]3)c2O)n1 [Compound I-303] , Kd reported as 396

Entry Oc1c(CCC2CCOCC2)c(-c2cccc(F)c2)nn1-c1nc2cccnc2[nH]1 [Compound I-304] , Kd reported as 138

----------
biological target: HIV-1 NefNL4-3 (Human immunodeficiency virus type 1 group M subtype B, UniProt P03406, A33V/T15A/T51N/V11I); test: Surface plasmon resonance binding to recombinant full-length Nef (NL4-3); conditions: read-out: Nef NL4-3 Binding, SPR 1:1 or 2-site fitting KD2; Table 1; 2-site fit, second component
measure: Kd

Entry CC(C)(C)OC(=O)N1CCCCC1Cc1nn(-c2nc3ccccc3[nH]2)c(O)c1CCc1ccc(F)cc1 (stereo not shown) , Kd reported as 0.809 µM

Entry CC(C)(C)OC(=O)N1CCC(CCc2c(-c3ccc(C(F)(F)F)cc3)nn(-c3nc4ccccc4[nH]3)c2O)CC1 , Kd reported as 6.35e-05 µM

Entry Oc1c(CC2CCOCC2)c(-c2ccc(F)cc2)nn1-c1nc2ccccc2[nH]1 , Kd reported as 46.5 µM

Entry CC(C)(C)OC(=O)N1CCC(c2nn(-c3nc4ccccc4[nH]3)c(O)c2Cc2ccc(F)c(F)c2)CC1 , Kd reported as 45.4 µM
